study.system: Large subunit-rSCFV5 fusion protein
Sequence (chain, as listed by the source): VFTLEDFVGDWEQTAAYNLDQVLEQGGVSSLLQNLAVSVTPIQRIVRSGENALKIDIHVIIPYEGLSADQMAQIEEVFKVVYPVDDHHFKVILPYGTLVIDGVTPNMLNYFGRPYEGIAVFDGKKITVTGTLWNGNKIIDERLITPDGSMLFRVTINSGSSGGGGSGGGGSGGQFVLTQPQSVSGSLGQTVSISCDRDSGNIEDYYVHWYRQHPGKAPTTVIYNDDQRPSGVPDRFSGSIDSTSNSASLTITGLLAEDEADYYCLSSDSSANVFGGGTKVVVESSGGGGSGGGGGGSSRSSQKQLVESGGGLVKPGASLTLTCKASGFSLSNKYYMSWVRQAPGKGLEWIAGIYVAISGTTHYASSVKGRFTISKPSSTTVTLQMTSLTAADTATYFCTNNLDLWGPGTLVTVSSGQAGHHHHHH
assay.details: cell-based or functional assay
Exercise: state measured normalised luminescence at PCT 100 pg/ml for each of the binders provided.
One number for each entry.

Worked examples follow.
VSGWRIHEKIS (peptide, part only; not given: rSCFV18 scFv part, part only) [rSCFV18-small subunit mutant fusion protein RA120] | 13400
VDGWRLHEKIS (peptide, part only; not given: rSCFV18 scFv part, part only) [rSCFV18-small subunit mutant fusion protein RA141] | 8680
VEGYRLFDKKW (peptide, part only; not given: rSCFV18 scFv part, part only) [rSCFV18-small subunit mutant fusion protein RB239] | 11000

Prompt: Given VEGYRLFNKEW (peptide, part only; not given: rSCFV18 scFv part, part only) [rSCFV18-small subunit mutant fusion protein RB284] , respond with its normalised luminescence at PCT 100 pg/ml.
Completion: 7040
